# Tested on: GST-hRIPK1 (8-327) (Homo sapiens (Human))
# Sequence (Q13546 8-327): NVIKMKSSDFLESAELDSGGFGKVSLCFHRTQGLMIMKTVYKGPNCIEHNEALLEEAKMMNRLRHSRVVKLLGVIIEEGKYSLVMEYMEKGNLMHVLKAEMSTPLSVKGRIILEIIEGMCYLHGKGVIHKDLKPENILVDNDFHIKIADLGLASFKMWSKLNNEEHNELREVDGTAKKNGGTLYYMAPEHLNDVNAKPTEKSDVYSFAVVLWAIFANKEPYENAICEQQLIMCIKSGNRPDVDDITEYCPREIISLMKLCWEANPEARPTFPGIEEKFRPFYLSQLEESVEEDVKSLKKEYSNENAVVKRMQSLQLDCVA
# Assay overview: Fluorescent Polarization Binding (FP Binding) assay
pIC50: −log10 of the molar value.

Molecule	Tested on	pIC50
C=C1C[C@H](NC(=O)c2cc(Cc3ccccc3)on2)C(=O)N(C)c2ccccc21 [Example 3]	GST-hRIPK1 (8-327) (Homo sapiens (Human))	6.00 to 10.00
CN1C(=O)[C@@H](NC(=O)c2cc3n(n2)CC[C@@H]3c2ccccc2)COc2ccccc21 [Example 13]	GST-hRIPK1 (8-327) (Homo sapiens (Human))	6.00 to 10.00
Cc1cc2n(n1)CC[C@H](NC(=O)c1nnc(Cc3ccccc3)[nH]1)C(=O)N2C [Example 129A]	GST-hRIPK1 (8-327) (Homo sapiens (Human))	6.00 to 10.00
Cc1nc2c(s1)CC[C@H](NC(=O)c1nnc(Cc3ccccc3)[nH]1)C(=O)N2C [Example 38A]	GST-hRIPK1 (8-327) (Homo sapiens (Human))	6.00 to 10.00
CN1C(=O)[C@@H](NC(=O)c2nnc(C3(c4ccccc4)CC3)o2)CCc2nccnc21 [Example 180A]	GST-hRIPK1 (8-327) (Homo sapiens (Human))	6.00 to 10.00
C[C@H]1Oc2cccnc2N(C)C(=O)[C@H]1NC(=O)c1cc(Cc2ccccc2)on1 [Example 112]	GST-hRIPK1 (8-327) (Homo sapiens (Human))	6.00 to 10.00
CN1C(=O)[C@H](NC(=O)c2nn(Cc3ccccc3)cc2F)CCc2cccnc21 [Example 111A]	GST-hRIPK1 (8-327) (Homo sapiens (Human))	5.00 to 6.00
CN1C(=O)[C@@H](NC(=O)c2nc(C#N)c(Cc3ccccc3)s2)COc2cccnc21 [Example 151]	GST-hRIPK1 (8-327) (Homo sapiens (Human))	6.00 to 10.00
CN1C(=O)[C@@H](NC(=O)c2nnc(Cc3ccccc3)[nH]2)[C@H]2C[C@H]2c2nccnc21 [Example 119B]	GST-hRIPK1 (8-327) (Homo sapiens (Human))	6.00 to 10.00
CN1C(=O)[C@H](NC(=O)c2nnc(C3(c4ccccc4)CC3)o2)CCc2nccnc21 [Example 180B]	GST-hRIPK1 (8-327) (Homo sapiens (Human))	< 5.52
CN1C(=O)[C@@H](NC(=O)c2nnc(Cc3ccccc3)[nH]2)CC2(CC2)c2ccccc21 [Example 44]	GST-hRIPK1 (8-327) (Homo sapiens (Human))	6.00 to 10.00
Cc1ncccc1Cn1cc(F)c(C(=O)N[C@@H]2CCc3nccnc3N(C)C2=O)n1 [Example 182A]	GST-hRIPK1 (8-327) (Homo sapiens (Human))	< 5.52
CN1C(=O)[C@@H](NC(=O)c2cc(Oc3ccccc3F)ccn2)[C@H]2C[C@H]2c2cccnc21 [Example 100A]	GST-hRIPK1 (8-327) (Homo sapiens (Human))	6.00 to 10.00
CN1C(=O)[C@@H](NC(=O)c2nnc(Cc3ccccc3)[nH]2)COc2c(C#N)cccc21 [Example 56]	GST-hRIPK1 (8-327) (Homo sapiens (Human))	6.00 to 10.00
CN1C(=O)[C@H](NC(=O)c2nnc(Cc3ccccc3)[nH]2)[C@@H]2C[C@@H]2c2nccnc21 [Example 119A]	GST-hRIPK1 (8-327) (Homo sapiens (Human))	< 5.52
Cc1nc2c(s1)CC[C@H](NC(=O)c1nnc(Cc3ccccc3)o1)C(=O)N2C [Example 200]	GST-hRIPK1 (8-327) (Homo sapiens (Human))	6.00 to 10.00
